- Tested on: 885512-296-R-J2-PDC complex spheroid viability
- assayComment: Anticancer human tumor 885512-296-R-J2-PDC patient-derived breast carcinoma cell line growth inhibition [GQUAD]
- experimentalSetup: curve of first compound; second compound 0.0316 µM
pIC50: −log10 of the molar value.
readoutType: pIC50

Example results:
>>> result("Cc1[nH]c2ccccc2c1CCNCc1ccc(/C=C/C(=O)NO)cc1 + Cc1cnc(CNC(=O)c2c(=O)c3ccc(N4CCCN(C)CC4)nc3n3c2sc2ccccc23)cn1")
7.82
>>> result("CC(C)n1c(=O)n(C)c2cnc3cc(F)c(-c4ccc(OCCCN5CCCCC5)nc4)cc3c21 + CN(C)c1ccc(Nc2c3ccc(NC(=O)CCN4CCCC4)cc3nc3cc(NC(=O)CCN4CCCC4)ccc23)cc1")
"< 5.00"
>>> result("COc1cccc2c1C(=O)c1c(O)c3c(c(O)c1C2=O)CC(O)(C(=O)CO)CC3OC1CC(N)C(O)C(C)O1 (stereo unspecified) + Cc1[nH]c2ccc(F)cc2c1-c1nc2c3cccnc3c3ncccc3c2[nH]1")
7.05
>>> result("CC(C)(O)C1CCC(Nc2ccc3ncc(-c4cccc(C(F)(F)F)c4)n3n2)CC1 (stereo unspecified) + Cc1cnc(CNC(=O)c2c(=O)c3ccc(N4CCCN(C)CC4)nc3n3c2sc2ccccc23)cn1")
5.78

Q) Query: pIC50; subject: C#Cc1c(F)ccc2cc(O)cc(-c3ncc4c(N5CC6CCC(C5)N6)nc(OCC56CCCN5CC(F)C6)nc4c3F)c12 (stereo unspecified) + CN(C)c1ccc(Nc2c3ccc(NC(=O)CCN4CCCC4)cc3nc3cc(NC(=O)CCN4CCCC4)ccc23)cc1
A) < 5.00

Q) Now this one: Cc1cccc(N(C)C(=O)C2C(O)CCN2c2nc(C)cc(C(F)(F)F)c2C#N)c1 (stereo unspecified) + Cc1cnc(CNC(=O)c2c(=O)c3ccc(N4CCCN(C)CC4)nc3n3c2sc2ccccc23)cn1
A) < 5.00

Q) Similarly, O=c1[nH]cc(F)c(=O)[nH]1 + CN(C)c1ccc(Nc2c3ccc(NC(=O)CCN4CCCC4)cc3nc3cc(NC(=O)CCN4CCCC4)ccc23)cc1 ?
A) < 5.00

Q) And CC(C)n1c(=O)n(C)c2cnc3cc(F)c(-c4ccc(OCCCN5CCCCC5)nc4)cc3c21 + Cc1cnc(CNC(=O)c2c(=O)c3ccc(N4CCCN(C)CC4)nc3n3c2sc2ccccc23)cn1 ?
A) > 7.50

Q) Consider next the compound O=C(c1cc(Cc2n[nH]c(=O)c3ccccc23)ccc1F)N1CCN(C(=O)C2CC2)CC1 + Cc1cnc(CNC(=O)c2c(=O)c3ccc(N4CCCN(C)CC4)nc3n3c2sc2ccccc23)cn1 in the same way.
A) 5.59

Q) Can you check Nc1ccn(C2OC(CO)C(O)C2(F)F)c(=O)n1 (stereo unspecified) + Cc1cnc(CNC(=O)c2c(=O)c3ccc(N4CCCN(C)CC4)nc3n3c2sc2ccccc23)cn1 next?
A) > 7.50

Q) Field entry: CCc1c2c(nc3ccc(O)cc13)-c1cc3c(c(=O)n1C2)COC(=O)[C@]3(O)CC + CN(C)c1ccc(Nc2c3ccc(NC(=O)CCN4CCCC4)cc3nc3cc(NC(=O)CCN4CCCC4)ccc23)cc1
A) > 9.00

* * *

- System: 885512-296-R-J2-PDC complex spheroid viability
- assayComment: Anticancer human tumor 885512-296-R-J2-PDC cell line growth inhibition [GQUAD];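 also: spheroids exposed to the compounds for one week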
- experimentalSetup: curve of first compound; second compound 0.0316 µM
readoutType: IC50

# example entries with known answers
>>> result("CC(C)(O)C1CCC(Nc2ccc3ncc(-c4cccc(C(F)(F)F)c4)n3n2)CC1 (configuration not stated) + Cc1[nH]c2ccc(F)cc2c1-c1nc2c3cccnc3c3ncccc3c2[nH]1")
"> 10000 nM"
>>> result("O=C(NO)c1cnc(N2CCN(S(=O)(=O)c3ccc4ccccc4c3)CC2)nc1 + Cc1cnc(CNC(=O)c2c(=O)c3ccc(N4CCCN(C)CC4)nc3n3c2sc2ccccc23)cn1")
"64.4 nM"
>>> result("O=C(NO)c1cnc(N2CCN(S(=O)(=O)c3ccc4ccccc4c3)CC2)nc1 + Cc1[nH]c2ccc(F)cc2c1-c1nc2c3cccnc3c3ncccc3c2[nH]1")
"< 31.6 nM"

Q) Quick one: IC50 for Cc1cccc(N(C)C(=O)C2C(O)CCN2c2nc(C)cc(C(F)(F)F)c2C#N)c1 (configuration not stated) + Cc1[nH]c2ccc(F)cc2c1-c1nc2c3cccnc3c3ncccc3c2[nH]1 ?
A) > 10000 nM

Q) What do you get for COc1ncnc(C2CC2)c1-c1ncc2cnn(Cc3ccc(-c4nc(C(F)(F)F)cn4C(C)C)cc3)c2n1 + CN(C)c1ccc(Nc2c3ccc(NC(=O)CCN4CCCC4)cc3nc3cc(NC(=O)CCN4CCCC4)ccc23)cc1 ?
A) > 10000 nM

Q) Item: Cn1ncnc1[C@H]1c2n[nH]c(=O)c3cc(F)cc(c23)N[C@@H]1c1ccc(F)cc1 + CN(C)c1ccc(Nc2c3ccc(NC(=O)CCN4CCCC4)cc3nc3cc(NC(=O)CCN4CCCC4)ccc23)cc1
A) 208 nM

Q) Moving on to the next compound: CC1COCCN1c1cc(-c2ccnn2C)c2ccnc(-c3ccn[nH]3)c2n1 (configuration not stated) + Cc1[nH]c2ccc(F)cc2c1-c1nc2c3cccnc3c3ncccc3c2[nH]1
A) < 31.6 nM
